testedTarget: NMDA receptor (GRIN1/GRIN2A subunits) (Homo sapiens, UniProt Q05586+Q12879)
Construct: expressed in transfected cells; host or cells: HEK 293 cells, stably transfected with GRIN1 and transiently transfected with GRIN2A and CD8
Sequence (Q12879 23-1464, other chains not shown): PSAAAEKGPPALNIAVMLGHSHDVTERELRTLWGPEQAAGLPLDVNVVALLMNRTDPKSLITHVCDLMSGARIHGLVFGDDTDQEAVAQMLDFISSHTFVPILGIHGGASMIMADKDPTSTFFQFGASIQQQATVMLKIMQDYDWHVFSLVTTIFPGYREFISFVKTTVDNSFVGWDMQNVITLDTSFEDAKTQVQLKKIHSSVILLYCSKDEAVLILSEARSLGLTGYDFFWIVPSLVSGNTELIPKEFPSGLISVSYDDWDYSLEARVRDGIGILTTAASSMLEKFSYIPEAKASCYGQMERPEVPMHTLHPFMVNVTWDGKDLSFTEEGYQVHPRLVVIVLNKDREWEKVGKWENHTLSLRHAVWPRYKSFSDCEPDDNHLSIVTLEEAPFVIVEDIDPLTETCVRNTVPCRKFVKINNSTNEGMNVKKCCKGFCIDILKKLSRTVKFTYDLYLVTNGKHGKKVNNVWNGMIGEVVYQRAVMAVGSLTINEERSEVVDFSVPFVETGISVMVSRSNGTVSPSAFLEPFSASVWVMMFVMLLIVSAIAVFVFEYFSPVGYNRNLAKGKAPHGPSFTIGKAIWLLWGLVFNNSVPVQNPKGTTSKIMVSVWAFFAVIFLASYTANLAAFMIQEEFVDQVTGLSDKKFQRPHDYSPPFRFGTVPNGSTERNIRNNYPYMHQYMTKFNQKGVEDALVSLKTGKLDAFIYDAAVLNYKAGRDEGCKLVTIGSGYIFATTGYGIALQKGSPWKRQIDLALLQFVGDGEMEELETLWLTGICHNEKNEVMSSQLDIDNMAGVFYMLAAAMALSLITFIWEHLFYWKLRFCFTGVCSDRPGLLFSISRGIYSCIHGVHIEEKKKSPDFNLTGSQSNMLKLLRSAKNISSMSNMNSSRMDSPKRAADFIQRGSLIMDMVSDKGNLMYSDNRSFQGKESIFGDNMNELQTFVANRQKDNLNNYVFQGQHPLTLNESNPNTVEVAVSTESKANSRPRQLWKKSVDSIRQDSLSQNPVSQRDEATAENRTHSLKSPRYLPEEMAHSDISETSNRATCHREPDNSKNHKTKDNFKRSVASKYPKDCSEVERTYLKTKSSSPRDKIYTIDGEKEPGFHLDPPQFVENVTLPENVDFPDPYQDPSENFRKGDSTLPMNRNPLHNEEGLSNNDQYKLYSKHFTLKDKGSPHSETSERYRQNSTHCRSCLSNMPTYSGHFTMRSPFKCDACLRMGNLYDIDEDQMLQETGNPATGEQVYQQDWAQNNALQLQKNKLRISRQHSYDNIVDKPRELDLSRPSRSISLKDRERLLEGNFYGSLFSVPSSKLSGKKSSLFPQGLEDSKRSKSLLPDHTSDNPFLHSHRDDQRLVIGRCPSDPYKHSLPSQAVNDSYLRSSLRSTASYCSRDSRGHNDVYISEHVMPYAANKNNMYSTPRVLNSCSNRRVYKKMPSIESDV
assayProtocol: NMDA potentiation, whole-cell patch-clamp in HEK cells
Type: cell-based
measurementParameters: HEK293, compound 0.1 uM, currents evoked by 30 μM NMDA and 5.0 μM Glycine, holding potential −80 mV, read-out: NMDA 1a2A (%) Potentiation 0.1 uM
attributeMeasured: activation at 0.1 µM (%)
Only the number, expressed in %, is required.

Below, each entry is followed by its recorded activation at 0.1 µM result.
[[record]]
molecule = "CC[C@]1(O)CC[C@@]2(C)C(=CC[C@H]3[C@@H]4CC[C@H]([C@H](C)CCC(C)(C)O)[C@@]4(C)CC[C@@H]32)C1"
readingunit = "%"
numericvalue = 181

[[record]]
molecule = "C[C@H](CCC(C)(C)O)[C@H]1CC[C@H]2[C@@H]3CC=C4C[C@@](C)(O)CC[C@]4(C)[C@H]3CC[C@]12C"
readingunit = "%"
numericvalue = 128


Report activation at 0.1 µM for CC[C@@]1(O)CC[C@@]2(C)C(=CC[C@H]3[C@@H]4CC[C@H]([C@H](C)CCC(C)(C)O)[C@@]4(C)CC[C@@H]32)C1 please.
23

Report activation at 0.1 µM for C[C@H](CC(C)(C)O)[C@H]1CC[C@H]2[C@@H]3CC=C4C[C@@H](O)CC[C@]4(C)[C@H]3CC[C@]12C please.
-5

Report activation at 0.1 µM for C[C@H](CCC(C)(C)N)[C@H]1CC[C@H]2[C@@H]3CC=C4C[C@@H](O)CC[C@]4(C)[C@H]3CC[C@]12C please.
-8

Report activation at 0.1 µM for C[C@H](CCCO)[C@H]1CC[C@H]2[C@@H]3CC=C4C[C@@H](O)CC[C@]4(C)[C@H]3CC[C@]12C please.
39

Report activation at 0.1 µM for CC(C)(O)CCC[C@H]1CCC2C3CC[C@H]4C[C@@](C)(O)CC[C@]4(C)C3CC[C@@]21C (stereo partly shown) please.
17

###

activation at 1 µM values, listed per item
testedTarget: NMDA receptor (GRIN1/GRIN2A subunits) (Homo sapiens, UniProt Q05586+Q12879)
Construct: expressed in transfected cells; host or cells: HEK 293 cells, stably transfected with GRIN1 and transiently transfected with GRIN2A and CD8
assayProtocol: NMDA potentiation, whole-cell patch-clamp in HEK cells
Format: cell-based
measurementParameters: HEK293, compound 1 uM, currents evoked by 30 μM NMDA and 5.0 μM Glycine, holding potential −80 mV, read-out: NMDA 1a2A (%) Potentiation 1 uM
Only the number, expressed in %, is required.

[[record]]
compoundsmiles = "CNC(C)(C)CC[C@@H](C)[C@H]1CC[C@H]2[C@@H]3CC=C4C[C@@H](O)CC[C@]4(C)[C@H]3CC[C@]12C"
numericvalue = 19


Report activation at 1 µM for C[C@H](CCC(C)(C)O)[C@H]1CC[C@H]2[C@@H]3CC[C@H]4C[C@@H](O)CC[C@@H]4[C@H]3CC[C@]12C please.
44

Report activation at 1 µM for C[C@H](CCC(C)(C)O)[C@H]1CC[C@H]2[C@@H]3CC=C4C[C@](C)(O)CC[C@]4(C)[C@H]3CC[C@]12C please.
60

###

testedTarget: NMDA receptor (GRIN1/GRIN2A subunits) (Homo sapiens, UniProt Q05586+Q12879)
Construct: expressed in transfected cells; host or cells: HEK 293 cells, stably transfected with GRIN1 and transiently transfected with GRIN2A and CD8
assayProtocol: NMDA potentiation, whole-cell patch-clamp in HEK cells
Type: cell-based
measurementParameters: HEK293, compound 0.1 uM, currents evoked by 30 μM NMDA and 5.0 μM Glycine, holding potential −80 mV, read-out: NMDA 1a2A (%) Potentiation 0.1 uM
attributeMeasured: activation at 0.1 µM (%)
Only the number, expressed in %, is required.

[[record]]
compound = "C[C@H](CCC(C)(C)O)[C@H]1CC[C@H]2[C@@H]3CC[C@H]4C[C@@](C)(O)CC[C@]4(C)[C@H]3CC[C@]12C"
testedtarget = "NMDA receptor (GRIN1/GRIN2A subunits) (Homo sapiens, UniProt Q05586+Q12879)"
numericvalue = 87


We now examine a further compound.
Report activation at 0.1 µM for C[C@H](CCC(C)(C)O)[C@H]1CC[C@H]2[C@@H]3CC[C@@H]4C[C@@](O)(C(F)(F)F)CC[C@]4(C)[C@H]3CC[C@]12C please.
9

###

testedTarget: NMDA receptor (GRIN1/GRIN2A subunits) (Homo sapiens, UniProt Q05586+Q12879)
Construct: expressed in transfected cells; host or cells: HEK 293 cells, stably transfected with GRIN1 and transiently transfected with GRIN2A and CD8
assayProtocol: NMDA potentiation, whole-cell patch-clamp in HEK cells
Type: cell-based
measurementParameters: HEK293, compound 0.1 uM, currents evoked by 30 μM NMDA and 5.0 μM Glycine, holding potential −80 mV, read-out: NMDA 1a2A (%) Potentiation 0.1 uM
attributeMeasured: activation at 0.1 µM
Form field: result (number plus unit)

Below, each entry is followed by its recorded activation at 0.1 µM result.
[[record]]
compoundsmiles = "C[C@H](CCC(C)(C)O)[C@H]1CC[C@H]2[C@@H]3CC[C@H]4C[C@@H](O)CC[C@@H]4[C@H]3CC[C@]12C"
result = "19%"

[[record]]
compoundsmiles = "CC(C)[C@H](O)CC[C@@H](C)[C@H]1CC[C@H]2[C@@H]3CC=C4C[C@@H](O)CC[C@]4(C)[C@H]3CC[C@]12C"
result = "82%"


Report activation at 0.1 µM for C[C@@H]([C@H]1CC[C@H]2[C@@H]3CC=C4C[C@@H](O)CC[C@]4(C)[C@H]3CC[C@]12C)C(C)(C)O please.
4%

###

activation at 0.1 µM values, listed per item
testedTarget: NMDA receptor (GRIN1/GRIN2A subunits) (Homo sapiens, UniProt Q05586+Q12879)
Construct: expressed in transfected cells; host or cells: HEK 293 cells, stably transfected with GRIN1 and transiently transfected with GRIN2A and CD8
assayProtocol: NMDA potentiation, whole-cell patch-clamp in HEK cells
Assay type: cell-based
measurementParameters: HEK293, compound 0.1 uM, currents evoked by 30 μM NMDA and 5.0 μM Glycine, holding potential −80 mV, read-out: NMDA 1a2A (%) Potentiation 0.1 uM
Only the number, expressed in %, is required.

Below, each entry is followed by its recorded activation at 0.1 µM result.
[[record]]
compound = "C[C@H](CCC(C)(C)O)[C@H]1CC[C@H]2[C@@H]3CC=C4C[C@@H](O)CC[C@@H]4[C@H]3CC[C@]12C"
attributemeasured = "activation at 0.1 µM"
numericvalue = 28

[[record]]
compound = "C[C@H](CCC(C)(C)O)[C@H]1CC[C@H]2[C@@H]3CC[C@H]4C[C@](C)(O)CC[C@]4(C)[C@H]3CC[C@]12C"
attributemeasured = "activation at 0.1 µM"
numericvalue = 19

[[record]]
compound = "C[C@H](CCC(C)(C)O)[C@H]1CC[C@H]2[C@@H]3CC[C@H]4C[C@](O)(C(F)(F)F)CC[C@@H]4[C@H]3CC[C@]12C"
attributemeasured = "activation at 0.1 µM"
numericvalue = 14

[[record]]
compound = "CC(C)(O)COC[C@H]1CCC2C3CC=C4C[C@@](C)(O)CC[C@]4(C)C3CC[C@@]21C (stereo partly drawn)"
attributemeasured = "activation at 0.1 µM"
numericvalue = -5

[[record]]
compound = "C[C@H](CCC(C)(C)O)[C@H]1CC[C@H]2[C@@H]3CC[C@H]4C[C@@](C)(O)CC[C@@H]4[C@H]3CC[C@]12C"
attributemeasured = "activation at 0.1 µM"
numericvalue = 25


We now examine a further compound.
Report activation at 0.1 µM for COC[C@]1(O)CC[C@@]2(C)[C@@H](CC[C@@H]3[C@@H]2CC[C@]2(C)[C@@H]([C@H](C)CCC(C)(C)O)CC[C@@H]32)C1 please.
14

###

testedTarget: NMDA receptor (GRIN1/GRIN2A subunits) (Homo sapiens, UniProt Q05586+Q12879)
Construct: expressed in transfected cells; host or cells: HEK 293 cells, stably transfected with GRIN1 and transiently transfected with GRIN2A and CD8
assayProtocol: NMDA potentiation, whole-cell patch-clamp in HEK cells
Type: cell-based
measurementParameters: HEK293, compound 0.1 uM, currents evoked by 30 μM NMDA and 5.0 μM Glycine, holding potential −80 mV, read-out: NMDA 1a2A (%) Potentiation 0.1 uM
Hi, to clarify the labels: Y covers activation at 0.1 µM from 10% upward, N covers anything below 10%.

[[record]]
compound = "COC[C@@]1(O)CC[C@@]2(C)[C@@H](CC[C@@H]3[C@@H]2CC[C@]2(C)[C@@H]([C@H](C)CCC(C)(C)O)CC[C@@H]32)C1"
assignedlabel = "N"


State whether the measured activation at 0.1 µM reaches 10%, counting equality as reaching it, for CC(C)(O)CCO[C@H]1CCC2C3CC[C@H]4C[C@@](C)(O)CC[C@]4(C)C3CC[C@@]21C (stereo partly drawn)
N

State whether the measured activation at 0.1 µM reaches 10%, counting equality as reaching it, for C[C@H](CCC(C)(C)O)[C@H]1CC[C@H]2[C@@H]3CC[C@H]4C[C@@H](O)CC[C@]4(C)[C@H]3CC[C@]12C
Y

State whether the measured activation at 0.1 µM reaches 10%, counting equality as reaching it, for C[C@H](CCC1(O)CC1)[C@H]1CC[C@H]2[C@@H]3CC=C4C[C@@H](O)CC[C@]4(C)[C@H]3CC[C@]12C
Y

State whether the measured activation at 0.1 µM reaches 10%, counting equality as reaching it, for C[C@H](CCC(C)(C)O)[C@H]1CC[C@H]2[C@@H]3CC=C4C[C@](C)(O)CC[C@]4(C)[C@H]3CC[C@]12C
Y

State whether the measured activation at 0.1 µM reaches 10%, counting equality as reaching it, for CC(O)CC[C@@H](C)[C@H]1CC[C@H]2[C@@H]3CC=C4C[C@@H](O)CC[C@]4(C)[C@H]3CC[C@]12C (stereo partly drawn)
Y

Measured values drawn from patent US20160022701A1 for this set.
